Molecular target: T1, human GIP receptor (human, UniProt P48546 22-466)
T1 sequence (looked up): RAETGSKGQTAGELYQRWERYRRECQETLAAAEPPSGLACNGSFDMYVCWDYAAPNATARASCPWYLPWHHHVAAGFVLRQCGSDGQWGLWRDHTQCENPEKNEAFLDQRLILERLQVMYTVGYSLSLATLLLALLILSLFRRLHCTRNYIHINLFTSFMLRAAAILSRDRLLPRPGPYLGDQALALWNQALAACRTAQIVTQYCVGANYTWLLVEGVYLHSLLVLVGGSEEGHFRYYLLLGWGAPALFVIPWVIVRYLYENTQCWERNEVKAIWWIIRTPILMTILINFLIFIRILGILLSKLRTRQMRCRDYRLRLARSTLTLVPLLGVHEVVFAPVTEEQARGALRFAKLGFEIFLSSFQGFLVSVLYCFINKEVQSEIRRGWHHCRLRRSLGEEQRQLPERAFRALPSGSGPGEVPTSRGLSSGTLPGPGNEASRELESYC
Experiment: cell-based or functional assay
*1 amine or outer side, *2 acyl side, *3 side chain or, on linkers, in order; H or OH if unused. Where no end group is shown, it is not given here. Side-chain parts run from the residue outwards. [ ]: non-standard residue; d: D form. The star is where a group is joined. C20 diacid = O=C(O)CCCCCCCCCCCCCCCCCCC(=O)*; C18 diacid = O=C(O)CCCCCCCCCCCCCCCCC(=O)*; γGlu = O=C(O)[C@H](CCC(=O)[*:2])N[*:1]; εLys = N[C@@H](CCCCN[*:1])C(=O)[*:2]; AEEA = NCCOCCOCC(=O)O; Aib = CC(C)(N)C(=O)O
For each entry below, report its EC50, CreLuc reporter, 0.5% hP value.
Give bare numbers, in nM.

For orientation, consider the following solved cases.
BINDER	UNIT_OF_MEASUREMENT	EC50, CreLuc reporter, 0.5% hP
YXEGTFTSDYSIXLDKQAQXAFVRYLINKXTRQRY (Aib at 2, 13, 20, 30; Lys29 epsilon-amino: C18DA-gGlu-gGlu-gGlu-gGlu-gGlu-gGlu-eLys; C-terminal amide) [Compound 153]	nM	0.1
Y[Aib]EGTFTSDYSI[Aib]LEKQAE[Aib]AFVRHLINK([εLys-γGlu-γGlu-AEEA-γGlu-γGlu-γGlu-C20 diacid])[Aib]TRQRY-NH2 [Compound 162]	nM	0.7
Y[Aib]EGTFTSDYSI[Aib]LEKQAE[Aib]AFVRHLINK([εLys-γGlu-AEEA-γGlu-γGlu-γGlu-γGlu-C20 diacid])[Aib]TRQRY-NH2 [Compound 148]	nM	0.8
YXEGTFTSDYAIXLEKQAQXAFVRHLINKXTRQRY (Aib at 2, 13, 20, 30; Lys29 epsilon-amino: C18DA-gGlu-gGlu-gGlu-gGlu-gGlu-gGlu-eLys; C-terminal amide) [Compound 142]	nM	0.3
YXEGTFTSDYSIXLDKQAQXAFIRHLINKXTRQRY (Aib at 2, 13, 20, 30; Lys29 epsilon-amino: C18DA-gGlu-gGlu-gGlu-gGlu-gGlu-gGlu-eLys; C-terminal amide) [Compound 102]	nM	0.1
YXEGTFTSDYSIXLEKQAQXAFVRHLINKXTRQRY (Aib at 2, 13, 20, 30; Lys29 epsilon-amino: C20DA-gGlu-gGlu-gGlu-gGlu-gGlu-gGlu-gGlu; C-terminal amide) [Compound 101]	nM	1
Y[Aib]EGTFTSDYSI[Aib]LDEQAQ[Aib]AFVRHLINK([εLys-γGlu-γGlu-γGlu-γGlu-γGlu-C20 diacid])[Aib]TRQRY-NH2 [Compound 138]	nM	0.5
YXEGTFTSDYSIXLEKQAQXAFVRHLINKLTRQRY (Aib at 2, 13, 20; Lys29 epsilon-amino: C18DA-gGlu-gGlu-gGlu-gGlu-gGlu; C-terminal amide) [Compound 158]	nM	0.5
YXEGTFTSDYSIXLEKQAQXAFVRHLINKATRQRY (Aib at 2, 13, 20; Lys29 epsilon-amino: C18DA-gGlu-gGlu-gGlu-gGlu-gGlu-gGlu-eLys; C-terminal amide) [Compound 159]	nM	0.2
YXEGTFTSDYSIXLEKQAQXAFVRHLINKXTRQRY (Aib at 2, 13, 20, 30; Lys29 epsilon-amino: C18DA-TRX-gGlu-gGlu-gGlu-gGlu-gGlu-gGlu-eLys; C-terminal amide) [Compound 137]	nM	0.5

Go through the items and report each one's EC50, CreLuc reporter, 0.5% hP.
1. YXEGTFTSDYSILLEKQAQXAFVRHLINKXTRQRY (Aib at 2, 20, 30; Lys29 epsilon-amino: C18DA-gGlu-gGlu-gGlu-gGlu-gGlu; C-terminal amide) [Compound 122]
2. YXEGTFTSDYSIXLDRQAQXAFVRHLINKXTRQRY (Aib at 2, 13, 20, 30; Lys29 epsilon-amino: C18DA-gGlu-gGlu-gGlu-gGlu-gGlu-gGlu-eLys; C-terminal amide) [Compound 147]
3. Y[Aib]EGTFTSDLSI[Aib]LEKQAQ[Aib]AFVRHLINK([γGlu-γGlu-εLys-γGlu-γGlu-γGlu-γGlu-C20 diacid])[Aib]TRQRY-NH2 [Compound 166]
4. Y[Aib]EGTFTSDYSI[Aib]LEKQAQ[Aib]EFVRHLINK([εLys-γGlu-γGlu-γGlu-γGlu-C18 diacid])[Aib]TRQRY-NH2 [Compound 163]
5. YXEGTFTSDYSIXLEKQAQYAFVRHLINKXTRQRY (Aib at 2, 13, 30; Lys29 epsilon-amino: C18DA-gGlu-gGlu-gGlu-gGlu-gGlu-gGlu-eLys; C-terminal amide) [Compound 151]
6. Y[Aib]EGTFTSDYSI[Aib]LDEQAQ[Aib]AFVRHLINK([εLys-εLys-γGlu-γGlu-γGlu-γGlu-γGlu-C20 diacid])[Aib]TRQRY-NH2 [Compound 155]
7. YXEGTFTSDYSIXLEKQAQXAFVRHLINKVTRQRY (Aib at 2, 13, 20; Lys29 epsilon-amino: C18DA-gGlu-gGlu-gGlu-gGlu-gGlu-gGlu-eLys; C-terminal amide) [Compound 126]
8. YXEGTFTSDYSIXLEKQAQXAFVRHLINKXTRQRX (Aib at 2, 13, 20, 30; Phe4F at 35; Lys29 epsilon-amino: C18DA-gGlu-gGlu-gGlu-gGlu-gGlu-gGlu-eLys; C-terminal amide) [Compound 86]

[0.1, 0.2, 0.6, 0.2, 0.5, 0.7, 0.4, 0.3]

Go through the items and report each one's EC50, CreLuc reporter, 0.5% hP.
1. Y[Aib]EGTFTSDYSI[Aib]LEKQAQ[Aib]AFVRHLINK([γGlu-γGlu-AEEA-γGlu-γGlu-γGlu-γGlu-C20 diacid])[Aib]TRQRY-NH2 [Compound 136]
2. YXEGTFTSDYSIXLEKQAQXAFIRHLINKXTRQRY (Aib at 2, 13, 20, 30; Lys29 epsilon-amino: C18DA-gGlu-gGlu-gGlu-gGlu-gGlu-gGlu-eLys; C-terminal amide) [Compound 88]

1. 0.5
2. 0.1
